Biological target: α1A-AR (Homo sapiens)
Sequence (P35348 1-466): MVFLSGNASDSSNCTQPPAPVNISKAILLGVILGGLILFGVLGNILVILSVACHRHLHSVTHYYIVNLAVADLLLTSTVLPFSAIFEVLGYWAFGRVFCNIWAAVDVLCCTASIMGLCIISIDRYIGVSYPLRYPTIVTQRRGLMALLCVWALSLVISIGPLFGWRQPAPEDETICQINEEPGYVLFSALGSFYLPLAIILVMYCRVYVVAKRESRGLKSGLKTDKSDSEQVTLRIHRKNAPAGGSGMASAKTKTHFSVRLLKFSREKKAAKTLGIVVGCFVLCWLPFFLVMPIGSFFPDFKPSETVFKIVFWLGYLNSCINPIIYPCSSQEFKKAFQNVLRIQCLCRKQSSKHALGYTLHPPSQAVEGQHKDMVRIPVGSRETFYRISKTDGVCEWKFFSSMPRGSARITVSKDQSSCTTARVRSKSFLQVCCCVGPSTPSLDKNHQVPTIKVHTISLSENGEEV
Assay: Competition binding with [125I]HEAT at α1A-AR (Rat-1 fibroblast membranes)
Design: expressed in transfected cells; host or cells: Rat-1 fibroblast cells
Settings: GTP removed from binding buffer; read-out: high affinity site
reported-endpoint: Ki (pM)
Please state the figure in pM; there is no need to write the unit.

Query: Returns the measured Ki for the input compound. Input: `CC(C)Cc1c(OCC2=NCCN2)cccc1N(C)S(C)(=O)=O`
Result: 1
